- Tested on: normal anesthetized dog
- procedure-text: Intravenous infusion in the normal anesthetized dog (MAP, RBF, RVR, HR)
- Type: in vivo
- study-conditions: 3 μg/kg/min (base), i.v. infusion, dopamine run in each test for comparison
Below, each of the compounds is paired with its reported % Change RVR (renal vascular resistance) value.
Note: unit % is implicit; provide only the numeric part.

COc1ccc(CCN)c2c1NC(=O)C2.Cl | -7.0

response.value for Br.CCCN(CCC)CCc1ccc(O)c2c1CC(=O)N2 (field: % Change RVR (renal vascular resistance)) = -39.1

The measured values listed here are drawn from patent US4414224A.
